- System: Crude diglycosidase
- runDescription: Examination of temperature in the conversion into isoflavone aglycons by diglycosidase using soybean materials
- Type: biochemical, Penicillium multicolor IAM7153
- Design: concentration or dose not given beside the values
- conditionNotes: 30 °C; heat treatment of enzyme: yes; 6 h
recordedEndpoint: Decomposition efficiency of glycitin family in roasted soy flour (%)
Respond with the bare value in %.

## Input Fill in: Decomposition efficiency of glycitin family in roasted soy flour of COc1cc2c(=O)c(-c3ccc(O)cc3)coc2cc1O is ___
## Output 11.1

## Input Param item = COc1cc2c(=O)c(-c3ccc(O)cc3)coc2cc1O[C@@H]1O[C@H](CO)[C@@H](O)[C@H](O)[C@H]1O ; retrieve measured Decomposition efficiency of glycitin family in roasted soy flour.
## Output 51.4

## Input // Decomposition efficiency of glycitin family in roasted soy flour lookup, key: COc1cc2c(=O)c(-c3ccc(O)cc3)coc2cc1O[C@@H]1O[C@H](COC(C)=O)[C@@H](O)[C@H](O)[C@H]1O
## Output 37.5

* * *

- Test system: Crude diglycosidase
- runDescription: Examination of pH in the conversion into isoflavone aglycons by diglycosidase using soybean materials
- Format: biochemical, Penicillium multicolor IAM7153
- conditionNotes: pH2.3, heat treatment of enzyme no, reaction time 3 h, 55° C.
recordedEndpoint: Decomposition efficiency of glycitin family in soymilk
Reply with just the number.

## Input Quick one: Decomposition efficiency of glycitin family in soymilk for COc1cc2c(=O)c(-c3ccc(O)cc3)coc2cc1O[C@@H]1O[C@H](COC(=O)CC(=O)O)[C@@H](O)[C@H](O)[C@H]1O ?
## Output 47.7

## Input Suppose we examine the compound COc1cc2c(=O)c(-c3ccc(O)cc3)coc2cc1O ; what Decomposition efficiency of glycitin family in soymilk value has been reported?
## Output 52.3

* * *

I'd appreciate it if you could supply Decomposition efficiency of glycitin family in soymilk values for the items below.
- Test system: Crude diglycosidase
- runDescription: Examination of pH in the conversion into isoflavone aglycons by diglycosidase using soybean materials
- Assay type: biochemical, Penicillium multicolor IAM7153
- conditionNotes: pH6.2, heat treatment of enzyme no, reaction time 6 h, 55° C.
// return a plain number; no unit text

## Input // lookup Decomposition efficiency of glycitin family in soymilk | system=Crude diglycosidase | key= COc1cc2c(=O)c(-c3ccc(O)cc3)coc2cc1O
## Output 70.4

## Input API: value(readout= Decomposition efficiency of glycitin family in soymilk, system= Crude diglycosidase, query= COc1cc2c(=O)c(-c3ccc(O)cc3)coc2cc1O[C@@H]1O[C@H](COC(=O)CC(=O)O)[C@@H](O)[C@H](O)[C@H]1O )
## Output 29.6

* * *

- Test system: Crude diglycosidase
- runDescription: Examination of temperature in the conversion into isoflavone aglycons by diglycosidase using soybean materials
- Assay type: biochemical, Penicillium multicolor IAM7153
- conditionNotes: 80° C., heat treatment of enzyme yes, reaction time 6 h
recordedEndpoint: Decomposition efficiency of daidzin family in concentrated soybean protein (%)
Reply with just the number (in %).

## Input So what's the measured Decomposition efficiency of daidzin family in concentrated soybean protein for this one? O=c1c(-c2ccc(O)cc2)coc2cc(O)ccc12
## Output 3.2

## Input // lookup Decomposition efficiency of daidzin family in concentrated soybean protein for O=c1c(-c2ccc(O)cc2)coc2cc(O[C@@H]3O[C@H](CO)[C@@H](O)[C@H](O)[C@H]3O)ccc12
## Output 54.5

## Input # get_value(readout='Decomposition efficiency of daidzin family in concentrated soybean protein', item= CC(=O)OC[C@H]1O[C@@H](Oc2ccc3c(=O)c(-c4ccc(O)cc4)coc3c2)[C@H](O)[C@@H](O)[C@@H]1O )
## Output 42.3

Source: patent US7118895B2
